Target: UniProtKB P14679
Sequence (P14679 whole entry): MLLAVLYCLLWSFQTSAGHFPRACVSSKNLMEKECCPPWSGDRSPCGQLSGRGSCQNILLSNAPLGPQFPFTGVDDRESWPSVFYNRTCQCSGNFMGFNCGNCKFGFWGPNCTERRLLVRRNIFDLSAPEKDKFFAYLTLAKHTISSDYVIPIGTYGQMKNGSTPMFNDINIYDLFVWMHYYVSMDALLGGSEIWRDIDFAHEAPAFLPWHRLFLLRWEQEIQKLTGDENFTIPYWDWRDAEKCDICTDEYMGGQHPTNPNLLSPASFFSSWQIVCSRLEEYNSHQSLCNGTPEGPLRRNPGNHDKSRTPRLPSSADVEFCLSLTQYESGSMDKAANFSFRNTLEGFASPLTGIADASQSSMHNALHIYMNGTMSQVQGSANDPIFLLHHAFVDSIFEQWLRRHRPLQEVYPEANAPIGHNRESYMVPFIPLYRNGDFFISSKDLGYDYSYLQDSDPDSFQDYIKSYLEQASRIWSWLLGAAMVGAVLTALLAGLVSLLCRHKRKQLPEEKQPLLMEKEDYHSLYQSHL
Conditions: at 10 µM
Description: Inhibition of tyrosinase (unknown origin) using L-tyrosine as substrate at 10 uM preincubated for 15 mins followed by substrate addition relative to control
Returns fulfilled if the recorded inhibition is greater than or equal to 1%, and not fulfilled otherwise.

CC(C)=CCc1cc([C@H]2Oc3c(ccc(O)c3CC=C(C)C)C(=O)C2O)ccc1O (some centres undefined) :: not fulfilled
CC(C)=CCc1cc(C[C@@H](O)C(=O)c2ccc(O)cc2O)ccc1O :: fulfilled
CC1(C)C=Cc2cc([C@@H]3CC(=O)c4ccc(O)cc4O3)ccc2O1 :: fulfilled
CC(C)=CCc1cc(/C=C/C(=O)c2ccc(O)c(CC=C(C)C)c2O)ccc1O :: not fulfilled
COc1ccc2c(c1)O[C@H]1c3ccc(O)c(CC=C(C)C)c3OC[C@@H]21 :: not fulfilled

## Input Is inhibition for `C=CC(C)(C)c1cc(/C=C/C(=O)c2ccc(O)cc2)c(OC)cc1O` at or above 1%?
## Output fulfilled

## Input Is inhibition for `CC1(C)C=Cc2c(cc(O)c3c(=O)c(-c4ccc(O)cc4)coc23)O1` at or above 1%?
## Output fulfilled

## Input Is inhibition for COc1ccc(C2COc3c(ccc(O)c3CC=C(C)C)C2=O)c(O)c1 (centres undefined) at or above 1%?
## Output fulfilled

====

// values below are reported inhibition at 10 µM
System: RAW264.7
Assay: Antiinflammatory activity against mouse RAW264.7 cells assessed as inhibition of LPS-induced nitric oxide production at 10 uM after 24 hrs by Griess assay relative to control
Type: functional
Conditions: RAW264.7, 24 h
Answer in %, number only, no unit symbol.

Recorded inhibition at 10 µM, per entry:
CC(C)=CCc1c(O)ccc(C(=O)/C=C/c2cc(O)c3c(c2)C=CC(C)(C)O3)c1O :: 2
CC1(C)C=Cc2c(O)ccc(C3=Cc4ccc(O)cc4OC3)c2O1 :: 57.5
CC1(C)C=Cc2c(ccc3c2O[C@H]2c4ccc(O)cc4OC[C@@H]32)O1 :: 2.6
COc1ccc(C2COc3c(ccc(O)c3CC=C(C)C)C2=O)c(O)c1 (stereo not drawn) :: 18.1

## Input API: value(readout=inhibition at 10 µM, system=RAW264.7) for record `CC1(C)C=Cc2c(ccc3cc(-c4ccc(O)cc4O)c(=O)oc23)O1`
## Output 18.9

## Input API: value(readout=inhibition at 10 µM, system=RAW264.7) for record `C=CC(C)(C)c1cc(/C=C/C(=O)c2ccc(O)cc2)c(OC)cc1O`
## Output 14.2

## Input API: value(readout=inhibition at 10 µM, system=RAW264.7) for record `COc1ccc([C@@H]2COc3c(ccc4c3C=CC(C)(C)O4)C2)c(O)c1O`
## Output 17.3

## Input API: value(readout=inhibition at 10 µM, system=RAW264.7) for record COc1ccc(C2(O)COc3c(ccc(O)c3CC=C(C)C)C2=O)c(O)c1 (stereo not drawn)
## Output 5.5

## Input API: value(readout=inhibition at 10 µM, system=RAW264.7) for record `COc1cc(/C=C/C(=O)CC(=O)/C=C/c2ccc(O)c(OC)c2)ccc1O`
## Output 70

## Input API: value(readout=inhibition at 10 µM, system=RAW264.7) for record `CC1(C)C=Cc2c(ccc3c(=O)c(-c4ccc(O)cc4O)coc23)O1`
## Output 12.1

## Input API: value(readout=inhibition at 10 µM, system=RAW264.7) for record `O=C1C[C@@H](c2ccc(O)cc2)Oc2cc(O)cc(O)c21`
## Output 0

## Input API: value(readout=inhibition at 10 µM, system=RAW264.7) for record `CC(C)=CCc1c(O)ccc(C(=O)/C=C/c2ccc(O)cc2)c1O`
## Output 7.5

## Input API: value(readout=inhibition at 10 µM, system=RAW264.7) for record CC(C)=CCc1cc([C@H]2Oc3c(ccc(O)c3CC=C(C)C)C(=O)C2O)ccc1O (stereo partly drawn)
## Output 0

These measurements were taken from ChEMBL document CHEMBL4052601.
